Cited source for all entries: ChEMBL document CHEMBL3259676

- target.entity: Glucose-dependent insulinotropic receptor (Mus musculus)
- Sequence (whole entry): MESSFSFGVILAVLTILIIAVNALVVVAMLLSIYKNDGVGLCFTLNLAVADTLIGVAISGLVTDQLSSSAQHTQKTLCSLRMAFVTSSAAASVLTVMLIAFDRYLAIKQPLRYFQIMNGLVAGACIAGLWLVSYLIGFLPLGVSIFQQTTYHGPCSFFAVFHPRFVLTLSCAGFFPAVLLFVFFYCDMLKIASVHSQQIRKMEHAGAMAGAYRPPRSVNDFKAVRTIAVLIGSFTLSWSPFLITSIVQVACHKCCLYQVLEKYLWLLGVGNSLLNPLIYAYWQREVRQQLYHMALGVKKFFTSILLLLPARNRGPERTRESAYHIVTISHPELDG
- protocol.text: Agonist activity at mouse GPR119 overexpressed in CHO cells assessed as stimulation of cAMP production by HTRF assay relative to AR231453
- Format: functional, cell-based
parameter: Efficacy (%)
Give the number; % is assumed, so skip it.

| molecule | Efficacy [%] |
| --- | --- |
| CCOC(=O)[C@](C)(Cc1ccccc1)c1cnnc2c(-c3ccc(C(F)(F)F)cc3)cnn12 | 81 |
| CCOC(=O)[C@](C)(Cc1ccccc1)c1ccnc2c(-c3ccc(Cl)cc3)cnn12 | 75 |
| CCOC(=O)[C@](C)(Cc1ccccc1)c1ccnc2c(-c3ccc(C(F)(F)F)cc3)cnn12 | 82 |
| CCOC(=O)C(Cc1c(F)cccc1Cl)c1ccnc2c(-c3ccc(Cl)cc3)cnn12 (racemic) | 93 |

Could you now look at the following molecule, please?
### Prompt Please report the recorded Efficacy for COCCN(C)C(=O)C(C)(Cc1ccccc1)c1ccnc2c(-c3ccc(C(F)(F)F)cc3)cnn12 (racemic) .
### Response 71
